target: Tubulin alpha chain (Sus scrofa); assay: Compound was evaluated for inhibition of tubulin polymerization
Sequence (P02550 whole entry, looked up): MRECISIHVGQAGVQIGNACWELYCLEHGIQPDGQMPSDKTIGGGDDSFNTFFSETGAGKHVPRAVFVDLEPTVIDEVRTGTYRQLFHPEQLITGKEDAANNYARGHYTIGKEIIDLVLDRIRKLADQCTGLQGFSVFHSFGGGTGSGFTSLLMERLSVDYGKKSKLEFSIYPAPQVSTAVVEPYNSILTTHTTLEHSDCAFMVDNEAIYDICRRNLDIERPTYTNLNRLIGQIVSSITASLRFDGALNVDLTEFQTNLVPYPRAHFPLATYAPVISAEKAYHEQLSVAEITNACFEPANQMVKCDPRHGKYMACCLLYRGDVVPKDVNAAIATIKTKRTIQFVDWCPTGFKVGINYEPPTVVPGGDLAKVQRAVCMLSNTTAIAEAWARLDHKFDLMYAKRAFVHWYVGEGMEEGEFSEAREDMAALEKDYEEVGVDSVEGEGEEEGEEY
experimental-readout: IC50 (µM)

A: COc1ccc(C(O)c2ccsc2-c2cc(OC)c(OC)c(OC)c2)cc1O (stereo not given)
B: COc1ccc(C2=C(c3cc(OC)c(OC)c(OC)c3)CCS2)cc1O
C: COc1ccc(-c2sccc2C(=O)c2cc(OC)c(OC)c(OC)c2)cc1O
Sort ascending by IC50. Provide the ranking by listing each label in its place in the requested order.
C, B, A

----------
molecular target: Tubulin alpha chain (Sus scrofa) (UniProt P02550); experiment: Inhibition of [3H]colchicine binding to tubulin at a concentration of 5.0 uM
Sequence (P02550 whole entry, looked up): as above
experimental-readout: inhibition (%)

Answered cases to consult:
>>> print(df.to_string())
                                   molecule  measured_result
0  COc1ccc2c(C(O)c3ccc(OC)c(O)c3)c(-c3cc(OC)c(OC)c(OC)c3)sc2c1 (stereo not given)                5
1  COc1ccc2c(C(=O)c3cc(OC)c(OC)c(OC)c3)c(-c3ccc(OC)c(O)c3)sc2c1               21
2  COc1ccc(-c2sccc2C(=O)c2cc(OC)c(OC)c(OC)c2)cc1O               67

a: COc1ccc(C2=C(c3cc(OC)c(OC)c(OC)c3)CCS2)cc1O
b: COc1ccc(C(O)c2ccsc2-c2cc(OC)c(OC)c(OC)c2)cc1O (stereo not given)
When the recorded inhibition values are compared, which is smaller: that of a or that of b ? Bench note: the answer is the label of the chosen record.
b
(b: 26%, a: 64%)

Where do the numbers come from? From ChEMBL document CHEMBL1133936.
